Origin of the recorded values: patent US11596639B2

Each entry below carries its reported log10(Ki).
Experimental target: Mcl-1 (Homo sapiens (Human), UniProt Q07820)
Sequence (Q07820 172-327): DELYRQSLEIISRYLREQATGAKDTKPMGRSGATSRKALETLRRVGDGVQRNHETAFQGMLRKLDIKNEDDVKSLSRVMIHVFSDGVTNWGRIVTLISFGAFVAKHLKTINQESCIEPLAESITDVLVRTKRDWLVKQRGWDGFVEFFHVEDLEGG
Experiment summary: Fluorescence polarization anisotropy (FPA) competition assay, FITC-Bak or FITC-Bim BH3 peptide
Format: binding
Condition description: read-out: Ki for Inhibition of Mcl-1 by FPA assay
Measured metric: log10(Ki) (log10 of the value in nM)

{"Compound": "Cc1cc(OCCCc2c3n(c4c(-c5c(C)nn(C)c5C)c(Cl)ccc24)[C@H](C)CN(c2c[nH]c4ccc(-c5ncn(C)n5)cc24)C3=O)cc(C)c1Cl", "log10(Ki)": 0.36}
{"Compound": "Cc1cc(OCCCc2c3n(c4c(-c5c(C)nn(C)c5C)c(Cl)ccc24)CCCN(c2cc(C(=O)O)c4cnn(CCN(C)C)c4c2)C3=O)cc(C)c1Cl", "log10(Ki)": 0.08}
{"Compound": "Cc1cc(OCCCc2c3n(c4c(-c5c(C)nn(C)c5C)c(Cl)ccc24)[C@H](C)CN(c2cc(OCc4ccccc4)cc4cc(C(=O)O)n(C)c24)C3=O)cc(C)c1Cl [Example 333]", "log10(Ki)": 0.11}
{"Compound": "Cc1cc(OCCCc2c3n(c4c(-c5c(C)cccc5C)c(Cl)ccc24)CCCNC3=O)cc(C)c1Cl", "log10(Ki)": 1.67}
{"Compound": "Cc1cc(N2C[C@@H](C)n3c(c(CCCOc4cc(C)c(Cl)c(C)c4)c4ccc(Cl)c(-c5c(C)nn(CCN6CCCC6)c5C)c43)C2=O)c2c(c1)cc(C(=O)O)n2C", "log10(Ki)": 0.32}
